Assay: BET inhibitor-based combinations targeting novel dependencies in MECOM-rearranged (r) AML: UCSD-AML1 cell line (AID 2202235); also: nearly all actives have a fitted effect of over 40% in size; also: potency is read from the fitted curve at half-maximal effect
Settings: UCSD-AML1 AML cells viability, CellTiter-Glo, 48 h; series mostly up to 46 µM
Records with an inconclusive call do not appear. The source made the active and inactive calls. Calls follow the shape of the dose curve; as a rule, active = well fitted inhibition curve with a large enough effect; inconclusive = small, poorly fitted or top-dose-only effect; inactive = no such curve, though single readings can be large or run the other way.

- Compound structure string: "O=C(Nc1ccncc1)C(=O)c1cn(Cc2ccc(Cl)cc2)c2ccccc12"
  Potency: "332 nM (active)"
- Compound structure string: "CN[C@@H]1C[C@H]2O[C@@](C)([C@@H]1OC)n1c3ccccc3c3c4c(c5c6ccccc6n2c5c31)C(=O)NC4"
  Potency: "66.1 nM (active)"
- Compound structure string: "Clc1ccccc1C(c1ccccc1)(c1ccccc1)n1cccn1"
  Potency: "inactive"
- Compound structure string: "CC(C)(NC(=O)O[C@@H]1CN2CCC1CC2)c1csc(-c2ccc(F)cc2)n1"
  Potency: "inactive"
- Compound structure string: "CCCN1CCO[C@@H]2c3cc(O)ccc3OC[C@H]21"
  Potency: "inactive"
- Compound structure string: "C[C@]12Cc3cn[nH]c3C[C@@H]1CC[C@@H]1[C@@H]2CC[C@@]2(C)[C@H]1CC[C@]2(C)O"
  Potency: "inactive"
- Compound structure string: "CC(C)(C)c1cc(C=C(C#N)C#N)cc(Br)c1O"
  Potency: "33200 nM (active)"
- Compound structure string: "CC[C@@]1(O)C(=O)OCc2c1cc1n(c2=O)Cc2cc3ccccc3nc2-1"
  Potency: "10.5 nM (active)"

###

Property: activation; scope: individual compounds
Target: Cellular tumor antigen p53 (Homo sapiens) (UniProt P04637)
Sequence (P04637 whole entry, looked up): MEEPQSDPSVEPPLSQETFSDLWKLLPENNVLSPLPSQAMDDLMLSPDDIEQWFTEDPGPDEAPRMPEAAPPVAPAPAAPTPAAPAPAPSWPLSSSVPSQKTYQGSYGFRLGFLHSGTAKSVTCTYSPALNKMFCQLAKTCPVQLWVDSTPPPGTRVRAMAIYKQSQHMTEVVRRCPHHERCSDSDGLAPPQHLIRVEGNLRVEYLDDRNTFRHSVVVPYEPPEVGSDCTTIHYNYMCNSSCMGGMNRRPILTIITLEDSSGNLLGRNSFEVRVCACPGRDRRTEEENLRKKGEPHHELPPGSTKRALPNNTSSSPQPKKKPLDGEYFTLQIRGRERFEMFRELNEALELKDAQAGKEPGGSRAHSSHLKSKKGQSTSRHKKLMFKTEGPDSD
Assay: Primary qHTS for small molecule compounds that upregulate eGFP-tagged delta133p53alpha (in N-terminal) cells. (AID 2060322);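 also: cells pre-induced with doxycycline then dosed without doxycycline; 0% = DMSO vehicle and 100% = reference activator; nearly all actives have a fitted effect of over 75% in size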
Settings: NCI-H358 eGFP-delta133p53alpha fluorescence, 24 h; active compounds read high
Inconclusive results are not listed.

- Compound: "CCC1(O)CCC2C3CCC4=CC(=O)CCC4C3CCC21CC (stereo not given)"
  Assayed target: "Cellular tumor antigen p53 (Homo sapiens) (UniProt P04637)"
  Units text: "%"
  activation: -2.33
- Compound: "CCCCCCC1C(=O)O[C@H](C)[C@H](NC(=O)c2cccc(NC=O)c2O)C(=O)O[C@@H](C)[C@@H]1OC(=O)CC(C)C (stereo not given in full)"
  Assayed target: "Cellular tumor antigen p53 (Homo sapiens) (UniProt P04637)"
  Units text: "%"
  activation: -5.67
- Compound: "Cn1ncnc1COc1nn2c(-c3c(F)cccc3F)nnc2cc1C1CCC1"
  Assayed target: "Cellular tumor antigen p53 (Homo sapiens) (UniProt P04637)"
  Units text: "%"
  activation: -7.16
- Compound: "CCCN(CCC)C1CCc2ccc(O)cc2C1 (stereo not given)"
  Assayed target: "Cellular tumor antigen p53 (Homo sapiens) (UniProt P04637)"
  Units text: "%"
  activation: -10.8
- Compound: "Cc1o[nH]c(=O)c1CC(N)C(=O)O (stereo not given)"
  Assayed target: "Cellular tumor antigen p53 (Homo sapiens) (UniProt P04637)"
  Units text: "%"
  activation: 16.8
- Compound: "O=C(CCCN1CCC(n2c(=O)[nH]c3ccccc32)CC1)c1ccc(F)cc1"
  Assayed target: "Cellular tumor antigen p53 (Homo sapiens) (UniProt P04637)"
  Units text: "%"
  activation: -4.18
- Compound: "CS(=N)(=O)CC[C@H](N)C(=O)O (stereo not given in full)"
  Assayed target: "Cellular tumor antigen p53 (Homo sapiens) (UniProt P04637)"
  Units text: "%"
  activation: -13.1
- Compound: "NC(Cc1cc(O)c(O)cc1O)C(=O)O (stereo not given)"
  Assayed target: "Cellular tumor antigen p53 (Homo sapiens) (UniProt P04637)"
  Units text: "%"
  activation: -19.2
- Compound: "CC(Cc1ccccc1)NCCn1cnc2c1c(=O)n(C)c(=O)n2C (stereo not given)"
  Assayed target: "Cellular tumor antigen p53 (Homo sapiens) (UniProt P04637)"
  Units text: "%"
  activation: 9.6
- Compound: "C[C@]12CC[C@H](O)CC1=CC[C@@H]1C2CC[C@]2(C)[C@@H](C3=CC(=O)OC3)CC[C@]12O (stereo not given in full)"
  Assayed target: "Cellular tumor antigen p53 (Homo sapiens) (UniProt P04637)"
  Units text: "%"
  activation: 2.29
- Compound: "C[C@]12CC[C@@H]3[C@@H](CCC4=CC(=O)CC[C@@H]43)[C@@H]1CC[C@@H]2OC(=O)CCc1ccccc1"
  Assayed target: "Cellular tumor antigen p53 (Homo sapiens) (UniProt P04637)"
  Units text: "%"
  activation: 7.88
- Compound: "C[C@@H]1CN(Cc2ccc(F)cc2)CCN1C(=O)COc1ccc(Cl)cc1NC(N)=O"
  Assayed target: "Cellular tumor antigen p53 (Homo sapiens) (UniProt P04637)"
  Units text: "%"
  activation: 1.91
- Compound: "CCOP(=O)(OCC)Oc1ccc2c(C)cc(=O)oc2c1"
  Assayed target: "Cellular tumor antigen p53 (Homo sapiens) (UniProt P04637)"
  Units text: "%"
  activation: 6.33
- Compound: "COC[C@H]1OC(=O)c2coc3c2[C@@]1(C)C1=C(C3=O)C2CCC(=O)[C@@]2(C)C[C@H]1OC(C)=O (stereo not given in full)"
  Assayed target: "Cellular tumor antigen p53 (Homo sapiens) (UniProt P04637)"
  Units text: "%"
  activation: -11.7
- Compound: "CCOC(=O)c1cncn1[C@H](C)c1ccccc1"
  Assayed target: "Cellular tumor antigen p53 (Homo sapiens) (UniProt P04637)"
  Units text: "%"
  activation: -12.5
- Compound: "C/C=C1/CN2CC[C@]34C(=Nc5ccc(OC)cc53)C2C[C@@H]1C4(CO)C(=O)OC (stereo not given in full)"
  Assayed target: "Cellular tumor antigen p53 (Homo sapiens) (UniProt P04637)"
  Units text: "%"
  activation: -9.16
- Compound: "COc1ccc2c(c1)C13CCCCC1C(C2)N(C)CC3 (stereo not given)"
  Assayed target: "Cellular tumor antigen p53 (Homo sapiens) (UniProt P04637)"
  Units text: "%"
  activation: -0.635
- Compound: "C[C@H](NC(=O)Cc1cc(F)cc(F)c1)C(=O)N[C@@H]1N=C(c2ccccc2)c2ccccc2N(C)C1=O"
  Assayed target: "Cellular tumor antigen p53 (Homo sapiens) (UniProt P04637)"
  Units text: "%"
  activation: 21
- Compound: "Oc1ccccc1-c1ccccc1"
  Assayed target: "Cellular tumor antigen p53 (Homo sapiens) (UniProt P04637)"
  Units text: "%"
  activation: 10
- Compound: "C=CC/C=C\\C/C=C\\CCCCCCCc1cc(O)cc(O)c1"
  Assayed target: "Cellular tumor antigen p53 (Homo sapiens) (UniProt P04637)"
  Units text: "%"
  activation: -9.92
- Compound: "C=C1CC[C@@]2(O)[C@H]3Cc4ccc(O)c5c4[C@@]2(CCN3CC2CC2)[C@H]1O5"
  Assayed target: "Cellular tumor antigen p53 (Homo sapiens) (UniProt P04637)"
  Units text: "%"
  activation: 6.21
- Compound: "COc1ccc2[nH]c(-c3ccccc3)c(CCN(C)C)c2c1"
  Assayed target: "Cellular tumor antigen p53 (Homo sapiens) (UniProt P04637)"
  Units text: "%"
  activation: -11
- Compound: "NC1CCc2cc(O)c(O)cc2C1 (stereo not given)"
  Assayed target: "Cellular tumor antigen p53 (Homo sapiens) (UniProt P04637)"
  Units text: "%"
  activation: -13
- Compound: "O=C(Nc1ccc(Br)cc1)c1cc(Br)cc(Br)c1O"
  Assayed target: "Cellular tumor antigen p53 (Homo sapiens) (UniProt P04637)"
  Units text: "%"
  activation: 29.9
- Compound: "CC(C)=C1CC[C@]23CO[C@H](C2)[C@@](O)(C(=O)O)CCC13 (stereo not given in full)"
  Assayed target: "Cellular tumor antigen p53 (Homo sapiens) (UniProt P04637)"
  Units text: "%"
  activation: -4.58
